Molecular target: T1, JRFL gp140-F trimer (HIV-1 isolate JRFL (clade B), UniProt Q75760, stabilised)
T1 construct: also called JRFL foldon trimers; source: 293 F cells
Experiment: ELISA; Env glycoprotein coated at 2 ug/ml in PBS pH 7.4 overnight at 4 C; IgG 5-fold serially diluted, 1 hour at RT; HRP goat anti-human IgG (H+L)
Settings: both partners purified
measurementType: binding result

{"binder": "GEBT391, mature IgG (antibody, V domains shown) VH: QVQLVESGGGLVQPGGSLRLSCAASGFTFSSYGMHWVRQAPGKGLEWVAVIWFDGSEKYYVDSVKDRFTISRDNSKNMLYLQMNNLKLDDTAVYYCARRGCTGSGCYLYYYALDSWGQGVVVTVSS VL: DIQMTQSPSSLSASVGDTVTITCRASQGISSYLNWFQQKPGKAPKLLIYAATTLQSGVPSRFSGSGSGTDFTLTISSLQPEDFATYYCLQHNFYPYSFGQGTKVEIK", "testResult": "binds"}
{"binder": "GEBT412, mature IgG (antibody, V domains shown) VH: QVQLVESGGGLVQPGGSLRLACAASGFIFSNHGMHWVRQAPGKGLEWVAVIWYDGSEKYYADSVKDRFTISRDNSKNMLYLQMNNLKLVDTAVYYCARRGCTGSGCYLYYYGLDSWGQGVVVTVSS VL: DIQMTQSPSSLSASVGDTVTITCRASQGISSHLNWFQQKPGKAPKLLIYAATTLQSGVPSRFSGSGSGTDFTLTISSLQPEDFATYYCLQHNFYPYSFGQGTKVEIK", "testResult": "binds"}
{"binder": "GEBT403, mature IgG (antibody, V domains shown, also called mature GEBT403) VH: EVQLVQSGAEVKKPGSSVKVSCKASGYTFTDYYMHWVRQAPGQGLEWMGEINPKTGGTNYAQKFQGRVTMTRDTSTSTAYMELSSLRSEDTAIYSCARGGQRLIPLRRFYFYYWGQGVLVTVSS VL: QSVLTQPPSVSGAPGQKVTISCTGSSSNIGGYDVHWYQQLPGMAPKLLIYDNNERPSGISDRFSGSKSGTSASLAITGLQTEDEADYYCQSYDSSMNAWVFGGGTRLTVL", "testResult": "binds"}

Origin of the recorded values: paper PMC4754655
